- Test system: A549 NSCLC
- experimental-details: NCI tumour cell line growth inhibition, 48 h
Exercise: for every item that follows, state its recorded TGI.

Solved entries:
INSERT INTO assay_data (compound, result) VALUES
  ('O=C(NCC(C(=O)OCc1ccccc1)C(=O)OCc1ccccc1)OCc1ccccc1', '> 100 µM'),
  ('[O-]c1c[n+](CC[n+]2cc([O-])on2)no1', '> 100 µM'),
  ('Nc1ncc(CN2CCOCC2)c(-c2ccccc2O)n1', '> 100 µM'),
  ('O/N=C1\CCc2cc3c(cc21)CCC3', '> 100 µM'),
  ('COC(=O)c1cc2oc(/C=C3\SC(=S)N(NC(C)=O)C3=O)cc2n1Cc1ccccc1', '17.9 µM'),
  ('S=C(Nc1ccccc1)N(Cc1ccccc1)c1ccccc1', '> 100 µM');

Parameter requested: TGI. Apply to each item below.
1. O=C1C[C@H]2CC3(CC[C@H]2CN1)OCCO3
2. CC1=C(C(=O)Nc2ccc(F)c(Cl)c2)C(c2cccc(Oc3ccccc3)c2)NC(=O)N1 (stereo unspecified)
3. O=C1NC(=NC2CCCCC2)C2(CCN(CCCC3(c4ccc(F)cc4)OCCO3)CC2)N1c1ccccc1
4. Clc1ccc(SCCCCCCCCCCSc2ccc(Cl)cc2)cc1
5. COC1=CC(=O)[C@]2(C)[C@H](C1=O)C(C)[C@H]2c1ccccc1 (stereo partly specified)

stdout:
["> 100 µM", "30.2 µM", "46.3 µM", "> 100 µM", "> 100 µM"]
